experimental_protocol: inhibitors of hydroxyurea-induced Chk1 phosphorylation, primary screen, imaging, HeLa, phospho-Chk1 nuclear intensity (AID 1187); note: test concentration not given here
reported_conditions: hydroxyurea-induced phospho-Chk1 immunofluorescence imaging, higher = more signal
// n strictly below 0.4 in z-score; y otherwise

• COC(=O)[C@@]1(Cc2ccccc2)[C@H]2c3cc(C(=O)N(C)C)n(Cc4ccc(Cl)c(C(F)(F)F)c4)c3C[C@H]2CN1C(=O)c1ccccc1 = y

Assess whether reported z-score for COc1ccc([Si](C)(C)[C@@H]2[C@@H](CC(=O)N3Cc4ccccc4C[C@H]3CO)O[C@]3(C(=O)N(Cc4ccc(I)cc4)c4ccccc43)[C@H]2C)cc1 sits at 0.4 or higher. n

Param item: O=C1O[C@H](c2ccccc2)[C@H](c2ccccc2)N2[C@H]1[C@@H](C(=O)Nc1nc3ccccc3s1)[C@]1(C(=O)Nc3ccccc31)[C@H]2c1ccccc1OCCO y

Param item: COc1c(C)cc(-c2cc3c(c(CCc4ccccc4)n2)[Si](C(C)C)(C(C)C)O[C@H]3c2ccccc2)cc1C n

Param item: C=CCN1C(=O)[C@]2(O[C@H](CCO)[C@@H]([Si](C)(C)c3ccc(OC)cc3)[C@@H]2C)c2cc(N3C(=O)c4ccccc4Oc4ccccc43)ccc21 n

Param item: CCOC(=O)C[C@H]1[C@H](OC(=O)c2ccc(-c3ccccc3)cc2)[C@@H](NC(=O)C2CCCCC2)c2cc(OCCCO)ccc2N1C(=O)Cc1ccc(OC)cc1 n

* * *

For each record, write down the corresponding composite z-score.
System: glycogen synthase kinase-3 (GSK3A per assay name; protocol says GSK3B)
experimental_protocol: GSK3 binders on small-molecule microarrays, primary screen, biochemical, small-molecule microarray, 635 nm fluorescence, GSK3A (AID 1103); note: the record names both GSK3A and GSK3B
reported_conditions: small-molecule microarray binding, fluorescence 635 nm; higher = more signal
Numbers only.

• O=C(c1ccccc1)N1Cc2ccccc2C[C@@]2(N=C(c3ccc(OCCCO)cc3)O[C@H]2c2ccccc2)C1=O = 1.3
• CC(C)(C)OC(=O)CC[C@]1(C(N)=O)N=C(c2ccc(OCCCO)cc2)O[C@H]1c1ccccc1N=[N+]=[N-] = -0.0657
• C=C[C@@H](CO)NS(=O)(=O)c1ccc(Br)cc1 = -0.986
• CCOC(=O)C[C@H]1[C@H](OC(=O)c2cc3ccccc3oc2=O)[C@@H](NC(=O)Cc2ccc(OC)cc2)c2cc(OCCCO)ccc2N1C(=O)Cc1ccc(OC)cc1 = 0.382
• C=C(COC)/C(=C/C[C@@H](OC(C)=O)c1cccc(OCCO)c1)c1cnc2ccccc2c1 = 0.917
• [N-]=[N+]=NCc1ccccc1[C@H]1OC(c2ccc(OCCCO)cc2)=N[C@@]1(Cc1ccccc1N=[N+]=[N-])C(=O)N1CCOCC1 = 1.1

Can you look up the measured composite z-score of O=C1O[C@@H](c2ccccc2)[C@@H](c2ccccc2)N2[C@@H](c3ccc(OCCO)cc3)[C@]3(C(=O)Nc4ccc(C#CC5=CCCCC5)cc43)[C@@H](C(=O)Nc3nc4ccccc4s3)[C@H]12 for me? 0.489

* * *

tgt: NADPH oxidase 2 (Homo sapiens)
experimental_protocol: NOX2-dependent H2O2 signal modulators, primary screen, NOX inhibitor project, cell-based, HEK293-NOX2, PMA-stimulated, Amplex Red fluorescence (AID 1159); note: test concentration not given here
reported_conditions: 45 min, higher = more signal, called active from +8 up or from −8 down
attribute_measured: z-score
One number for each entry.

• COc1ccc([Si](C)(C)[C@H]2[C@H](CC(=O)N3CCC[C@H]3CO)O[C@@]3(C(=O)N(Cc4cccc(N5CCCCC5=O)c4)c4ccccc43)[C@@H]2C)cc1 = 1.45
• COCCCNC(=O)[C@@]1(c2ccc([N+](=O)[O-])cc2)CC(=O)N(C2CCCCC2)[C@@H]1c1ccc(CO)cc1I = 1.78
• C=CCNC(=O)[C@@H]1[C@H]2C(=O)O[C@H](c3ccccc3)[C@H](c3ccccc3)N2[C@H](c2ccc(OCCO)cc2)[C@@]12C(=O)Nc1ccc(C#CC3=CCCCC3)cc12 = 1.38
• COCCCNC(=O)[C@@]1(Cc2ccccc2I)c2ccccc2C(=O)N(C2CCCCC2)[C@H]1c1ccc(CO)cc1 = 0.392
• C=C(C(=O)CC[C@@H](OC(=O)c1cccnc1)c1cccc(OCCO)c1)C(C)C = -0.967

Turning now to a further molecule:
Can you look up the measured z-score of COCCOC(=O)N1C(=O)[C@@]2(c3cc(C#CCC(C(=O)OC)C(=O)OC)ccc31)[C@H](C(=O)N1CCc3cc(OC)c(OC)cc3C1)[C@H]1C(=O)O[C@H](c3ccccc3)[C@H](c3ccccc3)N1[C@@H]2c1ccccc1OCCO for me? 1.48

The measured values listed here are drawn from PubChem BioAssay.
